- Study System: PCSK9
- Experiment: Biacore SPR
Quantity Name: pKd
The meaning of pKd here: minus log10 of the concentration in molar units.

INSERT INTO measurements (binder, numeric_result) VALUES
  ('1B20 variant D4 (antibody, part only; not given: light chain, probably the common parent VL, V domains shown, part only) VH: QVQLVQSGAEVKKPGESLKISCKGSGYSFTDYYIAWVRQMPGKGLEWMGIIYPGDSYTRYNPKFQGQVTISADKSISTAYLQWSSLKASDTAMYYCARDYWSRPFSDVWGQGTLVTVSS', 8.72);

Inquiry: Look up pKd for this binder: 1B20 variant B4 (antibody, part only; not given: light chain, probably the common parent VL, V domains shown, part only) VH: QVQLVQSGAEVKKPGESLKISCKGSGYSFTDYYISWVRQMPGKGLEWMGLIYPGDSYTHYNPNFQGQVTISADKSISTAYLQWSSLKASDTAMYYCARDYWSKPLFDVWGQGTLVTVSS
Reply text: 8.70

Inquiry: Field entry: 1B20 variant B9 (antibody, part only; not given: light chain, V domains shown, part only) VH: QVQLVQSGAEVKKPGESLKISCKGSGYSFTNYYISWVRQMPGKGLEWMGIIYPGDSYIHYNQNFQGQVTISADKSISTAYLQWSSLKASDTAMYYCARDYYSRPFSDIWGQGTLVTVSS
Reply text: 8.42

Inquiry: Then 1B20 variant A8 (antibody, part only; not given: light chain, probably the common parent VL, V domains shown, part only) VH: QVQLVQSGAEVKKPGESLKISCKGSGYSFTNYYISWVRQMPGKGLEWMGMIYPGDSYTHYSPNFQGQVTISADKSISTAYLQWSSLKASDTAMYYCARDYWSKPYFDVWGQGTLVTVSS ?
Reply text: 8.92

Inquiry: Another binder to check: 1B20 variant E2 (antibody, part only; not given: light chain, probably the common parent VL, V domains shown, part only) VH: QVQLVQSGAEVKKPGESLKISCKGSGYSFTNYYISWVRQMPGKGLEWMGLIYPGDSYTRYNRKFQGQVTISADKSISTAYLQWSSLKASDTAMYYCARDYYSRPLSDVWGQGTLVTVSS
Reply text: 8.58

Inquiry: Also 1B20 variant C2 (antibody, part only; not given: light chain, probably the common parent VL, V domains shown, part only) VH: QVQLVQSGAEVKKPGESLKISCKGSGYSFTDYYIAWVRQMPGKGLEWMGLIYPGDSYTSYNPRFQGQVTISADKSISTAYLQWSSLKASDTAMYYCARDYWSTPYFDIWGQGTLVTVSS , if possible.
Reply text: 8.65

Inquiry: Next record, please: 1B20 variant D5 (antibody, part only; not given: light chain, probably the common parent VL, V domains shown, part only) VH: QVQLVQSGAEVKKPGESLKISCKGSGYSFTNYYITWVRQMPGKGLEWMGLIYPGDSYTRYSPRFQGQVTISADKSISTAYLQWSSLKASDTAMYYCARDHWSRPYSDVWGQGTLVTVSS
Reply text: 8.80

Inquiry: And then 1B20 variant B1 (antibody, part only; not given: light chain, probably the common parent VL, V domains shown, part only) VH: QVQLVQSGAEVKKPGESLKISCKGSGYSFTDYYISWVRQMPGKGLEWMGIIYPGDSYTHYSPNFQGQVTISADKSISTAYLQWSSLKASDTAMYYCARDYWYTPFFDVWGQGTLVTVSS , what is it?
Reply text: 8.43
